Entries and their measured B-score follow.
- target desc: D(1A) dopamine receptor (Homo sapiens)
- protocol notes: D1 CRE-luciferase signal change, two-sided – cell-based, HEK293 D1, dopamine EC30, D1 allosteric modulator project, primary screen (AID 641)
- measurement parameters: dopamine EC30 potentiation, at 10 µM, actives deviate in either direction
In all, about 58,000 compounds went through this assay and about 3,400 (5.9%) were called active. The sample holds actives, similar compounds and a random draw of the others, so the mix is not that of the screen.

{"columns": ["compound", "B-score"],
 "data": [
  ["CCC1C(C#N)=C(SC)NC2=C1C(=O)CC(C)(C)C2 (centres undefined)", -0.282],
  ["N#CC1=C(N)OC2=C(C(=O)CCC2)C1C1CC=CCC1 (centres undefined)", -0.19],
  ["COc1ccc(-n2c(SC)nc(O)cc2=O)cc1", 0.0194],
  ["O=C(C1=C(O)C(=O)N(c2ncccn2)C1c1cccs1)c1ccco1 (centres undefined)", -0.746],
  ["O=C(C1CCCO1)N(Cc1ccccc1)c1ccccc1 (centres undefined)", 0.947],
  ["Cc1ccc2nc3n(c(=O)c2c1)CCC3", -0.684],
  ["OC(COc1ccccc1)Cn1cc(Br)cn1 (centres undefined)", -0.000319],
  ["O=c1c2c(nc3n1CCCCC3)sc1c(O)cccc12", -6.41],
  ["COc1ccc(NC(=O)C2CCCN(S(=O)(=O)c3cccc4cccnc34)C2)cc1 (centres undefined)", -1.11],
  ["CCc1nnc(NC(=O)CSc2nnc(-c3ccncc3)n2Cc2ccccc2)s1", -0.0482],
  ["CCC(=O)c1cc2c(cc1NC(=O)c1cccs1)OCCO2", 1.41],
  ["Cn1c(C(=O)NCCCN2CCCCC2)cc2sccc21", -0.452],
  ["COc1ccc(N(CC(=O)NC2CCCCCCC2)S(=O)(=O)c2c(C)nn(C)c2C)cc1", -0.289],
  ["Fc1ccc2[nH]c3c(N4CCSCC4)ncnc3c2c1", -5.42],
  ["COc1ccc(OC)c2[nH]c(=O)c(CCNC(=O)C(C)(C)C)cc12", -0.197],
  ["O=C(Cn1[nH]c(=O)c2ccccc2c1=O)Nc1cccc(-c2nnc3n2CCCCC3)c1", 0.394],
  ["COc1ccc(NC(=O)C2CCCN(S(=O)(=O)c3cccc4cccnc34)C2)cc1OC (centres undefined)", 11.5],
  ["Cc1ccc(S(=O)(=O)NC(C)C(=O)Nc2ccccc2C(=O)N2CCCC2)cc1 (centres undefined)", -1.42],
  ["O=C(CN1CCOCC1)Nc1cc(Cl)ccc1Cl", -0.306],
  ["COC(=O)c1ccc(NC(=O)CN(c2ccc(C)cc2)S(=O)(=O)c2c(C)n[nH]c2C)cc1", -1.32],
  ["CC(=O)c1c(C)c[nH]c1C", -3.34],
  ["COCCCNC(=O)c1c(F)c(F)c(F)c(F)c1F", -0.712],
  ["COc1ccc(CCNC(=O)c2cc3sccc3n2C)cc1OC", 4.1],
  ["COc1ccc(C(=O)NCCc2ccc(S(N)(=O)=O)cc2)cc1OC", -0.0032]
]}
